The values you see were collected from the Human Domainome abundance scans (Beltran et al. 2025).

B1: Pituitary-specific positive transcription factor 1, residues 130 to 198; numbered along this chain, P28069 (parent)
chain: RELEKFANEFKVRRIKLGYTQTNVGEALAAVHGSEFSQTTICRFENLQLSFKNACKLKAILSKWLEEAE

Variants of: B1
Assay Explanation: abundance fitness (aPCA) (normalised: wild type 0, dead -1); higher = more abundant; growth selection in yeast, the domain comes from the species named
Reported Conditions: Homo sapiens
Outcome: 1.0 for abundance fitness of at least -0.7; 0.0 for anything lower.

Worked examples follow.
Lookup: Would you say S62T shows abundance fitness at minimum -0.7?
Found: 1.0

Lookup: // repeat for R43M and report
Found: 1.0

Lookup: Please answer likewise for E35F
Found: 1.0

Turning now to a further variant:
Lookup: Is it the case that C42P has abundance fitness reaching or exceeding -0.7?
Found: 0.0
